Where do the numbers come from? From patent US4298727A.

// MIC collected for Providencia Pv 37

{"compound": "NCCC(O)C(=O)NC1CC(N)C(OC2OC(CN)CCC2O)C(O)C1OC1OC(CO)C(O)C(N)C1O (stereo not drawn)", "MIC": "6.25 µg/mL"}
{"compound": "NC[C@@H]1CC[C@@H](N)[C@@H](O[C@H]2[C@H](O)[C@@H](O[C@H]3O[C@H](CO)[C@@H](O)[C@H](N)[C@H]3O)[C@H](N)C[C@@H]2N)O1", "MIC": "> 100 µg/mL"}
{"compound": "NCC[C@H](O)C(=O)N[C@@H]1C[C@H](N)[C@@H](O[C@H]2O[C@H](CN)[C@@H](O)[C@H](O)[C@H]2O)[C@H](O)[C@H]1O[C@H]1O[C@H](CO)[C@@H](O)[C@H](N)[C@H]1O", "MIC": "12.5 µg/mL"}
{"compound": "NCC1CCC(O)C(OC2C(N)CC(NC(=O)C(O)CN)C(OC3OC(CO)C(O)C(N)C3O)C2O)O1 (racemic)", "MIC": "6.25 µg/mL"}
{"compound": "NCC1OC(OC2C(N)CC(N)C(OC3OC(CO)C(O)C(N)C3O)C2O)C(O)C(O)C1O (stereo not drawn)", "MIC": "> 100 µg/mL"}
{"compound": "NCC1CCC(O)C(OC2C(N)CC(N)C(OC3OC(CO)C(O)C(N)C3O)C2O)O1 (stereo not drawn)", "MIC": "> 100 µg/mL"}

###

# System: Staphylococcus aureus APOI
# run.description: MIC, standard serial dilution on nutrient agar
# Assay type: cell-based
# protocol.conditions: Staphylococcus aureus, 18 h
# maps each entry to its MIC

{"compound": "NCC[C@H](O)C(=O)N[C@@H]1C[C@H](N)[C@@H](O[C@H]2O[C@H](CN)[C@@H](O)[C@H](O)[C@H]2O)[C@H](O)[C@H]1O[C@H]1O[C@H](CO)[C@@H](O)[C@H](N)[C@H]1O", "MIC [µg/mL]": 1.56}
{"compound": "NCC1OC(OC2C(N)CC(N)C(OC3OC(CO)C(O)C(N)C3O)C2O)C(O)C(O)C1O (centres unmarked)", "MIC [µg/mL]": 12.5}
{"compound": "NCCC(O)C(=O)NC1CC(N)C(OC2OC(CN)CCC2O)C(O)C1OC1OC(CO)C(O)C(N)C1O (centres unmarked)", "MIC [µg/mL]": 0.78}
{"compound": "NC[C@@H]1CC[C@@H](N)[C@@H](O[C@H]2[C@H](O)[C@@H](O[C@H]3O[C@H](CO)[C@@H](O)[C@H](N)[C@H]3O)[C@H](N)C[C@@H]2N)O1", "MIC [µg/mL]": 0.78}
{"compound": "NCC1CCC(O)C(OC2C(N)CC(NC(=O)C(O)CN)C(OC3OC(CO)C(O)C(N)C3O)C2O)O1 (racemic)", "MIC [µg/mL]": 1.56}

###

# Test system: Providencia ZAO
# run.description: MIC, standard serial dilution on nutrient agar
# Format: cell-based
# protocol.conditions: Providencia, 18 h

{"compound": "NCC[C@H](O)C(=O)N[C@@H]1C[C@H](N)[C@@H](O[C@H]2O[C@H](CN)[C@@H](O)[C@H](O)[C@H]2O)[C@H](O)[C@H]1O[C@H]1O[C@H](CO)[C@@H](O)[C@H](N)[C@H]1O", "u": "µg/mL", "censoring.operator": "=", "MIC": 12.5}
{"compound": "NCC1OC(OC2C(N)CC(N)C(OC3OC(CO)C(O)C(N)C3O)C2O)C(O)C(O)C1O (stereo not shown)", "u": "µg/mL", "censoring.operator": ">", "MIC": 100}
{"compound": "NC[C@@H]1CC[C@@H](N)[C@@H](O[C@H]2[C@H](O)[C@@H](O[C@H]3O[C@H](CO)[C@@H](O)[C@H](N)[C@H]3O)[C@H](N)C[C@@H]2N)O1", "u": "µg/mL", "censoring.operator": ">", "MIC": 100}
{"compound": "NCCC(O)C(=O)NC1CC(N)C(OC2OC(CN)CCC2O)C(O)C1OC1OC(CO)C(O)C(N)C1O (stereo not shown)", "u": "µg/mL", "censoring.operator": "=", "MIC": 6.25}
